test system: SK-MEL-2 melanoma; assay: NCI tumour cell line growth inhibition, 48 h
reported.metric: TGI (µM)
Provide only the numeric value, understood in µM.

Would you please look over these solved cases?
> print(dat)
                                   compound  reported.metric  result
1  CC1(C)OCC(C2OC3OC(C)(C)OC3C2c2ccccc2)O1 (stereo not drawn)              TGI    64.8
2          CN(Cc1ccc(F)cc1)c1ccc(CO)c(Cl)c1              TGI    33.8
3  CCCCCCCCC/C=C1/CC(CO)(COC(=O)CC(C(C)C)C(C)C)OC1=O (stereo not drawn)              TGI    29.7

Query: Checklist item: TGI tested on SK-MEL-2 melanoma, entry CC(/C=C/C(O)=C1/C(=O)CNC1=O)=C\[C@@H](C)[C@H]1O[C@@]2(C)O[C@H](C(=O)[C@@H]3O[C@@]32C)[C@@H]1C , value?
Response: 50.1

Query: Checklist item: TGI tested on SK-MEL-2 melanoma, entry O=C(Nc1cccc2[nH]c(C(F)(F)F)nc12)c1cc(Cl)ccc1Cl , value?
Response: 6.66

====

test system: SF-268 CNS; experiment: NCI tumour cell line growth inhibition, 48 h
reported.metric: TGI (µM)
Provide only the numeric value, understood in µM.

Would you please look over these solved cases?
> print(dat)
                                   compound  reported.metric  units.of.measure  result
1  CCCCCCCCCc1ccc(OCCOCCOCCOCCOCCOCCOCCOCCOCCO)cc1              TGI                µM    3.37
2  O=C(CC1(O)C(=O)Nc2ccc(F)cc21)c1ccc(C(=O)NCC2CCC3(CC2)OOC2(CCCCC2)OO3)cc1 (stereo not given)              TGI                µM    30.8
3  CCOC(=O)C(=CNc1ccc(N(C2=NCC(C)S2)c2ccc(F)c(Cl)c2)cc1)C(=O)OCC (stereo not given)              TGI                µM    55.3

# ---- query compound ----
Query: Which TGI is reported for this compound? C[C@H]1C2Cc3cc(O)ccc3[C@@]1(C)CCN2CCc1ccc(N)cc1
Response: 52.6

====

tested on: IGROV1 ovarian; assay: NCI tumour cell line growth inhibition, 48 h
reported.metric: TGI

Would you please look over these solved cases?
> print(dat)
                                   compound    result
1  O=C(Nc1cccc(F)c1)c1cc2ccc(O)cc2oc1=Nc1cccc(F)c1   5.73 µM
2  C[C@H]1C2Cc3cc(O)ccc3[C@@]1(C)CCN2CCc1ccc(N)cc1   66.3 µM
3  COc1ccc(/C=C2\CCC(CCN(C)C)(C3=CCCC3)C2=O)cc1 (stereo not given)   33.2 µM
4  COC(=O)C(=O)C(CC(=O)Nc1ccc(C)cc1)C(=O)OC (stereo not given)  > 100 µM
5  CCOC(=O)c1sc(-c2ccc(OS(=O)(=O)C[C@]34CCC(CC3=O)C4(C)C)c(C=O)c2)nc1C   2.85 µM

Query: Which TGI is reported for this compound? C=C(CN1CCc2c([nH]c3ccccc23)C1)c1ccc(C(=O)Nc2ccccc2N)cc1
Response: 18.9 µM

Query: Which TGI is reported for this compound? Nc1nc(N)c2cc(Sc3ccc4ccccc4c3)ccc2n1
Response: 14.1 µM

Query: Which TGI is reported for this compound? N#[N+]c1c([O-])c2ccccc2c2ccccc12
Response: > 100 µM

Query: Which TGI is reported for this compound? Cc1ccc(Cl)cc1N=NC(=O)NNc1cc(Cl)ccc1C
Response: 38.3 µM

Query: Which TGI is reported for this compound? O=[N+]([O-])c1cc([As](Br)c2ccc(O)c([N+](=O)[O-])c2)ccc1O
Response: 3.6 µM
